- Target desc: C-Rel subunit;p50 subunit (Homo sapiens;Homo sapiens, UniProt Q04864;P19838 1-285;7-356)
- Sequence (Q04864 1-285, chain 1 of 2): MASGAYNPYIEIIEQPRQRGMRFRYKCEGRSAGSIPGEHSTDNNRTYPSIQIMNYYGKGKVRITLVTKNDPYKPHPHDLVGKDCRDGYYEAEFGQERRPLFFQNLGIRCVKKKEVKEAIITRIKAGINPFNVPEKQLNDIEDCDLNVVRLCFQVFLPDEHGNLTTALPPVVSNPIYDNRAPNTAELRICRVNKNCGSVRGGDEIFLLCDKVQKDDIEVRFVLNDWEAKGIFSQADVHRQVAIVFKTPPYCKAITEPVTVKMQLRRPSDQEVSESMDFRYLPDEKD
- Sequence (P19838 7-356, chain 2 of 2): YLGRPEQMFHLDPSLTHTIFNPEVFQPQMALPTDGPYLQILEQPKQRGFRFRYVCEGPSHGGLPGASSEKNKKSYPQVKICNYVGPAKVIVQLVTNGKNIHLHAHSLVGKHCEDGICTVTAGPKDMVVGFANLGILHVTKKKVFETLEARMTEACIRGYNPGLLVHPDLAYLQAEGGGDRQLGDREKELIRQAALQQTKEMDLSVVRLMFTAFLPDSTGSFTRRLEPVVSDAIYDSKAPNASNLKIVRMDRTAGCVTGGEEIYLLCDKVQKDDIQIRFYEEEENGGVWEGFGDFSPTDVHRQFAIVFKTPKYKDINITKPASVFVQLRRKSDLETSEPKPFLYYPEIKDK
- Test: protein binding microarray; high values mean tight binding
- Setup conditions: dsDNA, one strand shown
Reported binding signal values for the following sequences.
Assay metric: binding signal (z-score)

Construct sequence | Target desc | Value measured
GAGGGTGTCCC | C-Rel subunit;p50 subunit (Homo sapiens;Homo sapiens, UniProt Q04864;P19838 1-285;7-356) | 0.469
AGGGGGGCCCT | C-Rel subunit;p50 subunit (Homo sapiens;Homo sapiens, UniProt Q04864;P19838 1-285;7-356) | 0.525
CGGGTTATCCC | C-Rel subunit;p50 subunit (Homo sapiens;Homo sapiens, UniProt Q04864;P19838 1-285;7-356) | 0.306
GAATTTACCCT | C-Rel subunit;p50 subunit (Homo sapiens;Homo sapiens, UniProt Q04864;P19838 1-285;7-356) | 0.6
AAAATAACCCC | C-Rel subunit;p50 subunit (Homo sapiens;Homo sapiens, UniProt Q04864;P19838 1-285;7-356) | 0.682
AGAGATCCCCC | C-Rel subunit;p50 subunit (Homo sapiens;Homo sapiens, UniProt Q04864;P19838 1-285;7-356) | 1.37
CAAAACACCCC | C-Rel subunit;p50 subunit (Homo sapiens;Homo sapiens, UniProt Q04864;P19838 1-285;7-356) | 0.611
AGAGACCTCCC | C-Rel subunit;p50 subunit (Homo sapiens;Homo sapiens, UniProt Q04864;P19838 1-285;7-356) | -0.845
AGATAAGCCCT | C-Rel subunit;p50 subunit (Homo sapiens;Homo sapiens, UniProt Q04864;P19838 1-285;7-356) | -0.985
GAGGTAGTCCC | C-Rel subunit;p50 subunit (Homo sapiens;Homo sapiens, UniProt Q04864;P19838 1-285;7-356) | 0.447
CAGGTCATCCT | C-Rel subunit;p50 subunit (Homo sapiens;Homo sapiens, UniProt Q04864;P19838 1-285;7-356) | -1.52
GGGTTCGTCCC | C-Rel subunit;p50 subunit (Homo sapiens;Homo sapiens, UniProt Q04864;P19838 1-285;7-356) | 0.489
CAAATTTTCCC | C-Rel subunit;p50 subunit (Homo sapiens;Homo sapiens, UniProt Q04864;P19838 1-285;7-356) | 1.5
CGGAATCCCCT | C-Rel subunit;p50 subunit (Homo sapiens;Homo sapiens, UniProt Q04864;P19838 1-285;7-356) | 1.83
CGAGATTTCCC | C-Rel subunit;p50 subunit (Homo sapiens;Homo sapiens, UniProt Q04864;P19838 1-285;7-356) | 1.31
AAGTTATCCCC | C-Rel subunit;p50 subunit (Homo sapiens;Homo sapiens, UniProt Q04864;P19838 1-285;7-356) | 1.16
CAAGACCTCCC | C-Rel subunit;p50 subunit (Homo sapiens;Homo sapiens, UniProt Q04864;P19838 1-285;7-356) | -0.818
CGGATAATCCT | C-Rel subunit;p50 subunit (Homo sapiens;Homo sapiens, UniProt Q04864;P19838 1-285;7-356) | -0.945
AAGAACACCCC | C-Rel subunit;p50 subunit (Homo sapiens;Homo sapiens, UniProt Q04864;P19838 1-285;7-356) | 0.232
CAAGTATTCCT | C-Rel subunit;p50 subunit (Homo sapiens;Homo sapiens, UniProt Q04864;P19838 1-285;7-356) | -0.507

Data origin, for the record: paper PMC3218832
